target: KRas G12D/Q61H double mutant (Homo sapiens (Human), UniProt P01116, G12D/Q61H); test: Ras GTP binding domain inhibition assay (labeled GTP); conditions: 20 μM compound; read-out: % Inhibition at 20 μM KRas G12D Q61H
Sequence (P01116-2 other isoform, or with tags, fused parts or gaps G12D/Q61H): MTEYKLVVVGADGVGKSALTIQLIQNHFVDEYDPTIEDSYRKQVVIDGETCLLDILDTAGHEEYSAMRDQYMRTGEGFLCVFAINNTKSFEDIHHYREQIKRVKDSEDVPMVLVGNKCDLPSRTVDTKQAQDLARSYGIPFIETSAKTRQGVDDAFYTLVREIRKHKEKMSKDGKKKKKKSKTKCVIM
Readout name: inhibition at 20 µM

[[record]]
compound = "Cc1ccc(OCCn2c(CN3CCCCC3)nc3ccccc32)cc1"
result = "25 to 50%"

[[record]]
compound = "Cn1nnc2ccc(-c3csc4c(O)nc(-c5ccccn5)nc34)cc21 [drawing 2861]"
result = "51 to 75%"

[[record]]
compound = "Oc1nc(-c2ccccn2)nc2c(-c3ccc(OC4CCOCC4)cc3)csc12 [drawing 2867]"
result = "25 to 50%"

[[record]]
compound = "O=c1[nH]c(-c2ncccn2)nc2cc(-c3cccc(Cl)c3)sc12"
result = "25 to 50%"

[[record]]
compound = "O=C(c1cc(-c2ccccc2)nn1-c1ccccc1)N(Cc1nnc(-c2ccccc2Cl)o1)C1CC1"
result = "25 to 50%"

[[record]]
compound = "Cc1ccccc1OCCn1c(CN2CCOCC2)nc2ccccc21"
result = "1 to 25%"

[[record]]
compound = "O=S(=O)(Oc1c(Cl)cc(Cl)c2cccnc12)N1CCCCCC1"
result = "25 to 50%"

[[record]]
compound = "O=C(COCC1CC1)Nc1nnc(-c2ccccn2)[nH]1"
result = "25 to 50%"


FYI, the data here is from patent US10940139B2.
